Provenance of the data: the supplement of paper PMC10567573

Measured protein stability index by item
B1: C22orf15 (parent)
chain: ITQSWQVSVRVQPRGRAHLLPNPY

variants of: B1; assay: protein stability index of a GFP-peptide fusion (GPS, HEK-293T) (PSI 1-6); higher = more stable; details: c terminus: a fixed tail appended;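 also: lentivirally expressed fusions sorted by FACS into six bins by GFP to DsRed ratio, PSI derived from sequencing read proportions per bin multiplied by bin number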

{"RESIDUE_CODES": "ITQSWQVSVRVQPRGRTHLLPNPY [A17T]", "protein stability index": 2.28}
{"RESIDUE_CODES": "ITQSAQVSVRVQPRGRAHLLPNPY [W5A]", "protein stability index": 1.86}
{"RESIDUE_CODES": "ITQSWQVSVRVQPQGRAHLLPNPY [R14Q]", "protein stability index": 2.15}
{"RESIDUE_CODES": "ITYSWQVSVRVQPRGRAHLLPNPY [Q3Y]", "protein stability index": 4.26}
{"RESIDUE_CODES": "ITQSWQVYVRVQPRGRAHLLPNPY [S8Y]", "protein stability index": 1.8}
{"RESIDUE_CODES": "ITQSWFVSVRVQPRGRAHLLPNPY [Q6F]", "protein stability index": 4.73}
{"RESIDUE_CODES": "ITQSWEVSVRVQPRGRAHLLPNPY [Q6E]", "protein stability index": 1.92}
{"RESIDUE_CODES": "ITQSWQVSVRVQPRGRAHLLPRPY [N22R]", "protein stability index": 2.33}
{"RESIDUE_CODES": "ITQSWQVSVRVQPRGRATLLPNPY [H18T]", "protein stability index": 2.13}
{"RESIDUE_CODES": "ITQHWQVSVRVQPRGRAHLLPNPY [S4H]", "protein stability index": 2.83}
{"RESIDUE_CODES": "ITQSMQVSVRVQPRGRAHLLPNPY [W5M]", "protein stability index": 1.61}
